Target: mouse vas deferens (MVD), primarily delta-type opiate receptors (Mus musculus, UniProt P32300)
Construct: from tissue; host or cells: mouse vas deferens
Sequence (P32300 whole entry): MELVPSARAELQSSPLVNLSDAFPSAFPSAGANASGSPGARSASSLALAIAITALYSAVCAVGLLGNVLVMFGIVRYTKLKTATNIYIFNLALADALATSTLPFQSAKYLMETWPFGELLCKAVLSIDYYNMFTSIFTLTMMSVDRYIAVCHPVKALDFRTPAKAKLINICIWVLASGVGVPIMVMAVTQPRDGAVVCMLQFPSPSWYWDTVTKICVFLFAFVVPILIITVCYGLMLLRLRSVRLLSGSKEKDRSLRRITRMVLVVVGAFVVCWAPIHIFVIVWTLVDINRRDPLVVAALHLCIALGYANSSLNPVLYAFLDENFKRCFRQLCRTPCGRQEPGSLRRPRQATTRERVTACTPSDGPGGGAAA
Experiment: mouse vas deferens (MVD) assay: inhibition of electrically induced muscle contractions
Type: cell-based
Conditions: mouse vas deferens, electrically stimulated contractions; read-out: IC50 (nM) ± S.E.E. MVD
Bridge positions count the residues as written; N and C are the ends. Square brackets hold non-standard residues; d marks the D form. Peptide text beside a SMILES is read from it. Phe(4-NO2) = N[C@@H](Cc1ccc([N+](=O)[O-])cc1)C(=O)O; Phe(4-Br) = N[C@@H](Cc1ccc(Br)cc1)C(=O)O; Phe(4-Cl) = N[C@@H](Cc1ccc(Cl)cc1)C(=O)O; Phe(4-I) = N[C@@H](Cc1ccc(I)cc1)C(=O)O; dPen = CC(C)(S)[C@@H](N)C(=O)O; dAbu = CC[C@@H](N)C(=O)O; Ac5c = NC1(C(=O)O)CCCC1
attribute.measured: log10 IC50 (log10 of the value in nM)
Heads up, the numbers here are log10 of IC50 in nM units.

Consider the reported log10 IC50 for these compounds:
| compound | obs.value |
| --- | --- |
| C[C@@H]1NC(=O)[C@H](NC(=O)[C@@H](N)Cc2ccc(O)cc2)C(C)(C)SSC(C)(C)[C@H](C(=O)O)NC(=O)[C@H](Cc2ccc(I)cc2)NC1=O [[p-I--Phe^4 ]DPADPE] (H-Y[dPen]A[Phe(4-I)][dPen]-OH; disulfide 2-5) | 1.04 |
| C[C@@H]1NC(=O)[C@H](NC(=O)[C@@H](N)Cc2ccc(O)cc2)C(C)(C)SSC(C)(C)[C@H](C(=O)O)NC(=O)[C@H](Cc2ccc(Br)cc2)NC1=O [[p-Br--Phe^4 ]DPADPE] (H-Y[dPen]A[Phe(4-Br)][dPen]-OH; disulfide 2-5) | 0.47 |
| CC1(C)SSC(C)(C)[C@@H](NC(=O)[C@@H](N)Cc2ccc(O)cc2)C(=O)N[C@@H](CO)C(=O)N[C@@H](Cc2ccccc2)C(=O)N[C@H]1C(=O)O [[L--Ser^3]DPDPE] (H-Y[dPen]SF[dPen]-OH; disulfide 2-5) | 2.40 |
| CC[C@H]1NC(=O)[C@H](NC(=O)[C@@H](N)Cc2ccc(O)cc2)C(C)(C)SSC(C)(C)[C@H](C(=O)O)NC(=O)[C@H](Cc2ccccc2)NC1=O [[D--Abu^3]DPDPE] (H-Y[dPen][dAbu]F[dPen]-OH; disulfide 2-5) | 3.29 |
| CC1(C)SSC(C)(C)[C@@H](NC(=O)[C@@H](N)Cc2ccc(O)cc2)C(=O)NC2(CCCC2)C(=O)N[C@@H](Cc2ccccc2)C(=O)N[C@H]1C(=O)O [[AC5 C^3]DPDPE] (H-Y[dPen][Ac5c]F[dPen]-OH; disulfide 2-5) | 2.57 |
| C[C@@H]1NC(=O)[C@H](NC(=O)[C@@H](N)Cc2ccc(O)cc2)C(C)(C)SSC(C)(C)[C@H](C(=O)O)NC(=O)[C@H](Cc2ccc([N+](=O)[O-])cc2)NC1=O [[p-NO2 --Phe^4 ]DPADPE] (H-Y[dPen]A[Phe(4-NO2)][dPen]-OH; disulfide 2-5) | 0.57 |
| CC1(C)SSC(C)(C)[C@@H](NC(=O)[C@@H](N)Cc2ccc(O)cc2)C(=O)N[C@H](CO)C(=O)N[C@@H](Cc2ccccc2)C(=O)N[C@H]1C(=O)O [[D--Ser^3]DPDPE] (H-Y[dPen][dS]F[dPen]-OH; disulfide 2-5) | 3.11 |

With those in mind, consider the next compound.
Consider C[C@@H]1NC(=O)[C@H](NC(=O)[C@@H](N)Cc2ccc(O)cc2)C(C)(C)SSC(C)(C)[C@H](C(=O)O)NC(=O)[C@H](Cc2ccc(Cl)cc2)NC1=O [[p-Cl--Phe^4 ]DPADPE] (H-Y[dPen]A[Phe(4-Cl)][dPen]-OH; disulfide 2-5) . Its measured log10 IC50 is 0.29
